Procedure summary: Cytotoxicity against mouse C3H10T1/2 cells assessed as live cells at 40 uM measured after 72 hrs by MUSE cell analyzer (reference value: 95.8%)
Assay type: cell-based, C3H 10T1/2
Condition description: read-out: Activity
Metric name: viability at 72 h, 40 µM (%)
# output: bare number, implied unit %

// C/C(=C\CO)CCC[C@H](C)CCC[C@H](C)CCCC(C)C [TRANS-PHYTOL] : viability at 72 h, 40 µM value = 96
